All figures here come from patent US20240228562A1.

Target: T1, Murine CTGF (Mus musculus, UniProt P29268)
T1 construct: purchased Abbexa
T1 sequence (P29268 26-348): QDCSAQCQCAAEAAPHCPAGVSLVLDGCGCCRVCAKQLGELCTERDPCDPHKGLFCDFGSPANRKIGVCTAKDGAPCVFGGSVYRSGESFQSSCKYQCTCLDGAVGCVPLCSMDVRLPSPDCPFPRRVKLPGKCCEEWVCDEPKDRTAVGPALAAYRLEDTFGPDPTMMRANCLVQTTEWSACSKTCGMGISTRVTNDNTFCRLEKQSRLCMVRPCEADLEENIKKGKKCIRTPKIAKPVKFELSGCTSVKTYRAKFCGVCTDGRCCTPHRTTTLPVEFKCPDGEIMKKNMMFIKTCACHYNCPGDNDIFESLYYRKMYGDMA
Assay: SPR binding kinetics and affinity, murine CTGF
Conditions: 25° C., 1:1 binding model
OBSERVED_PROPERTY: Murine CTGF kon (M⁻¹ s⁻¹)
Return type: number; implicit unit M⁻¹ s⁻¹.

Recorded Murine CTGF kon of SEQ ID NO: 26: optimized CTGF-binding hNGAL lipocalin mutein (protein, lipocalin mutein) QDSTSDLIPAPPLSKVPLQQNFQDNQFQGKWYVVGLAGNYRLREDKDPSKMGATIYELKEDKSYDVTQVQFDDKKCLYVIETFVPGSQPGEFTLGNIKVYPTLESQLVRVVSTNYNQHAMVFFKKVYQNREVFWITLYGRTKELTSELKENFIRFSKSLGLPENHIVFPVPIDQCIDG , please.
35300
